# study-target: UniProtKB P30542
quantity-measured: Ki (nM)

[[record]]
compound_structure_string = "COP(=O)(OC)OC[C@H]1O[C@@H](n2cnc3c(NC4CCCC4)nc(Cl)nc32)[C@H](O)[C@@H]1O"
assay_result = 36


====

# study-target: Adenosine receptor A1 (Homo sapiens, UniProt P30542)
# Sequence (P30542 whole entry): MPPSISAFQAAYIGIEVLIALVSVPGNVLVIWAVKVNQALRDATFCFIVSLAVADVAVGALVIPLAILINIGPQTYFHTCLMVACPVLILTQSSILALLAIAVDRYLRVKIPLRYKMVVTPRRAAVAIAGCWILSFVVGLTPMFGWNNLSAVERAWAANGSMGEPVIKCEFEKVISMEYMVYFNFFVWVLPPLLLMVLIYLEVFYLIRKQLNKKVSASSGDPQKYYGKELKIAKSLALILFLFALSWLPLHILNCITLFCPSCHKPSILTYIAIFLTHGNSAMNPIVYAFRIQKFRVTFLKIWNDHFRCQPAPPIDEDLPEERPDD
# assay-text: Agonist activity at human A1AR expressed in HEK293T/17 cells assessed as inhibition of isoproterenol-induced cAMP accumulation incubated for 10 mins by luciferase reporter assay
# Assay type: functional, cell-based, HEK-293T
pEC50: −log10 of the molar value.
The threshold is inclusive: pEC50 of exactly 6 counts as satisfied; values below receive not satisfied.

[[record]]
compound = "O=P(O)(O)OC[C@H]1O[C@@H](n2cnc3c(NC4CCCC4)ncnc32)[C@H](O)[C@@H]1O"
label_class = "satisfied"

[[record]]
compound = "Nc1ncnc2c1ncn2[C@@H]1O[C@H](CO)[C@@H](OP(=O)(O)O)[C@H]1O"
label_class = "satisfied"

[[record]]
compound = "CCOP(=O)(OCC)OC[C@H]1O[C@@H](n2cnc3c(NC4CCCC4)nc(Cl)nc32)[C@H](O)[C@@H]1O"
label_class = "not satisfied"

[[record]]
compound = "Nc1ncnc2c1ncn2[C@@H]1O[C@H](CO)[C@@H](O)[C@H]1OP(=O)(O)O"
label_class = "satisfied"

[[record]]
compound = "Nc1ncnc2c1ncn2[C@@H]1O[C@H](COP(=O)(O)O)[C@@H](O)[C@H]1O [ADENOSINE PHOSPHATE]"
label_class = "satisfied"

[[record]]
compound = "O=P(OCCc1ccccc1)(OCCc1ccccc1)OC[C@H]1O[C@@H](n2cnc3c(NC4CCCC4)nc(Cl)nc32)[C@H](O)[C@@H]1O"
label_class = "not satisfied"

